- System: NCI-H841 complex tumor spheroid viability
- measurement-notes: Anticancer human tumor NCI-H841 cell line growth inhibition;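 also: spheroids exposed to compounds for 7 days before readout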
- measurement-conditions: curve of first compound; second compound 0.03 µM

{"compound": "COc1ccc([C@@H](O)c2cc(-c3ncnc4cc(N5CCOCC5)ccc34)c(F)cc2Cl)nn1 + CC[C@@]1(O)C(=O)OCc2c1cc1n(c2=O)Cc2cc3c(CN(C)C)c(O)ccc3nc2-1", "IC50": "< 31.6 nM"}
{"compound": "CC1COCCN1c1cc(-c2ccnn2C)c2ccnc(-c3ccn[nH]3)c2n1 (stereo not given) + CC[C@@]1(O)C(=O)OCc2c1cc1n(c2=O)Cc2cc3c(CN(C)C)c(O)ccc3nc2-1", "IC50": "< 31.6 nM"}
{"compound": "O=C(c1cc(Cc2n[nH]c(=O)c3ccccc23)ccc1F)N1CCN(C(=O)C2CC2)CC1 + CC[C@@]1(O)C(=O)OCc2c1cc1n(c2=O)Cc2cc3c(CN(C)C)c(O)ccc3nc2-1", "IC50": "< 94.9 nM"}
{"compound": "Cn1ncnc1[C@H]1c2n[nH]c(=O)c3cc(F)cc(c23)N[C@@H]1c1ccc(F)cc1 + CC[C@@]1(O)C(=O)OCc2c1cc1n(c2=O)Cc2cc3c(CN(C)C)c(O)ccc3nc2-1", "IC50": "< 9.49 nM"}
{"compound": "CC(C)n1c(=O)n(C)c2cnc3cc(F)c(-c4ccc(OCCCN5CCCCC5)nc4)cc3c21 + CC[C@@]1(O)C(=O)OCc2c1cc1n(c2=O)Cc2cc3c(CN(C)C)c(O)ccc3nc2-1", "IC50": "< 31.6 nM"}
{"compound": "Cc1sc2c(c1C)C(c1ccc(Cl)cc1)=NC(CC(=O)Nc1ccc(O)cc1)c1nnc(C)n1-2 (stereo not given) + CC[C@@]1(O)C(=O)OCc2c1cc1n(c2=O)Cc2cc3c(CN(C)C)c(O)ccc3nc2-1", "IC50": "< 9.49 nM"}
{"compound": "CNCc1ccc(-c2cc(-c3nc(-c4ccc(S(=O)(=O)C(C)C)cc4)cnc3N)on2)cc1 + CC[C@@]1(O)C(=O)OCc2c1cc1n(c2=O)Cc2cc3c(CN(C)C)c(O)ccc3nc2-1", "IC50": "< 9.49 nM"}
{"compound": "COc1cc(C)[nH]c(=O)c1CN1CCc2c(Cl)cc(C(OC)C3COC3)c(Cl)c2C1=O (stereo not given) + CC[C@@]1(O)C(=O)OCc2c1cc1n(c2=O)Cc2cc3c(CN(C)C)c(O)ccc3nc2-1", "IC50": "< 31.6 nM"}
{"compound": "[2H]c1nc(C)nc([2H])c1-c1cc(NC[C@@H](C)c2cccc3c(C(=O)NC)ccnc23)ncn1 + CC[C@@]1(O)C(=O)OCc2c1cc1n(c2=O)Cc2cc3c(CN(C)C)c(O)ccc3nc2-1", "IC50": "< 31.6 nM"}
{"compound": "Cc1cc(C)c(CNC(=O)c2cc(-c3ccc(CN4CCOCC4)cc3)cc3c2cnn3C2CCCC2)c(=O)[nH]1 + CC[C@@]1(O)C(=O)OCc2c1cc1n(c2=O)Cc2cc3c(CN(C)C)c(O)ccc3nc2-1", "IC50": "< 31.6 nM"}

---

- System: NCI-H841 complex tumor spheroid viability
- measurement-notes: Anticancer human tumor NCI-H841 cell line growth inhibition;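 also: spheroids exposed to compounds for 7 days before readout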;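 as to viability, T/C: 100% = DMSO vehicle control wells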
- measurement-conditions: second compound 0.003 µM; first compound 10 µM; stronger effect = lower value
// viability, T/C lookup, one value per entry
endpoint-label: viability, T/C (%)

{"compound": "[2H]c1nc(C)nc([2H])c1-c1cc(NC[C@@H](C)c2cccc3c(C(=O)NC)ccnc23)ncn1 + CC[C@@]1(O)C(=O)OCc2c1cc1n(c2=O)Cc2cc3c(CN(C)C)c(O)ccc3nc2-1", "readout-number": 93}
{"compound": "COc1cc(C)[nH]c(=O)c1CN1CCc2c(Cl)cc(C(OC)C3COC3)c(Cl)c2C1=O (configuration not stated) + COc1cc2c(cc1O)CCNC21CSC2c3c(OC(C)=O)c(C)c4c(c3C(COC1=O)N1C(O)C3Cc5cc(C)c(OC)c(O)c5C(C21)N3C)OCO4", "readout-number": 0.17}
{"compound": "COc1ccc([C@@H](O)c2cc(-c3ncnc4cc(N5CCOCC5)ccc34)c(F)cc2Cl)nn1 + COc1cc2c(cc1O)CCNC21CSC2c3c(OC(C)=O)c(C)c4c(c3C(COC1=O)N1C(O)C3Cc5cc(C)c(OC)c(O)c5C(C21)N3C)OCO4", "readout-number": 0.27}
{"compound": "COc1ccc([C@@H](O)c2cc(-c3ncnc4cc(N5CCOCC5)ccc34)c(F)cc2Cl)nn1 + CC[C@@]1(O)C(=O)OCc2c1cc1n(c2=O)Cc2cc3c(CN(C)C)c(O)ccc3nc2-1", "readout-number": 10.6}
{"compound": "COc1cc(C)[nH]c(=O)c1CN1CCc2c(Cl)cc(C(OC)C3COC3)c(Cl)c2C1=O (configuration not stated) + CC[C@@]1(O)C(=O)OCc2c1cc1n(c2=O)Cc2cc3c(CN(C)C)c(O)ccc3nc2-1", "readout-number": 47.5}
{"compound": "[2H]c1nc(C)nc([2H])c1-c1cc(NC[C@@H](C)c2cccc3c(C(=O)NC)ccnc23)ncn1 + COc1cc2c(cc1O)CCNC21CSC2c3c(OC(C)=O)c(C)c4c(c3C(COC1=O)N1C(O)C3Cc5cc(C)c(OC)c(O)c5C(C21)N3C)OCO4", "readout-number": 0.17}
{"compound": "CC(C)n1c(=O)n(C)c2cnc3cc(F)c(-c4ccc(OCCCN5CCCCC5)nc4)cc3c21 + CC[C@@]1(O)C(=O)OCc2c1cc1n(c2=O)Cc2cc3c(CN(C)C)c(O)ccc3nc2-1", "readout-number": 43.2}

---

- System: NCI-H841 complex tumor spheroid viability
- measurement-notes: Anticancer human tumor NCI-H841 cell line growth inhibition;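 also: spheroids exposed to compounds for 7 days before readout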;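 as to viability, T/C: 100% = DMSO vehicle control wells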
- measurement-conditions: second compound 0.3 µM; first compound 3.16 µM; stronger effect = lower value
- Description: Multicellular complex tumor spheroid response to DNA repair inhibitors in combination with DNA-damaging drugs This study explores the anticancer activities of DNA-damaging drugs and inhibitors of DNA damage repair, both as single agents and in combinations. […] Twenty-six patient-derived or established malignant cell lines were evaluated representing sarcoma, melanoma, small cell lung cancer (SCLC), non-small cell lung cancer (NSCLC), as well as bladder, ovarian and pancreatic cancers. […]
// boundary case: viability, T/C equal to 1% maps to False; strictly smaller maps to True

{"compound": "CC(C)n1c(=O)n(C)c2cnc3cc(F)c(-c4ccc(OCCCN5CCCCC5)nc4)cc3c21 + CC[C@@]1(O)C(=O)OCc2c1cc1n(c2=O)Cc2cc3c(CN(C)C)c(O)ccc3nc2-1", "group": "True"}
{"compound": "[2H]c1nc(C)nc([2H])c1-c1cc(NC[C@@H](C)c2cccc3c(C(=O)NC)ccnc23)ncn1 + CC[C@@]1(O)C(=O)OCc2c1cc1n(c2=O)Cc2cc3c(CN(C)C)c(O)ccc3nc2-1", "group": "False"}
{"compound": "Cc1cc(C)c(CNC(=O)c2cc(-c3ccc(CN4CCOCC4)cc3)cc3c2cnn3C2CCCC2)c(=O)[nH]1 + CC[C@@]1(O)C(=O)OCc2c1cc1n(c2=O)Cc2cc3c(CN(C)C)c(O)ccc3nc2-1", "group": "False"}
{"compound": "COc1ccc([C@@H](O)c2cc(-c3ncnc4cc(N5CCOCC5)ccc34)c(F)cc2Cl)nn1 + CC[C@@]1(O)C(=O)OCc2c1cc1n(c2=O)Cc2cc3c(CN(C)C)c(O)ccc3nc2-1", "group": "True"}
{"compound": "COc1cc(C)[nH]c(=O)c1CN1CCc2c(Cl)cc(C(OC)C3COC3)c(Cl)c2C1=O (stereo unspecified) + CC[C@@]1(O)C(=O)OCc2c1cc1n(c2=O)Cc2cc3c(CN(C)C)c(O)ccc3nc2-1", "group": "False"}
{"compound": "CC1COCCN1c1cc(-c2ccnn2C)c2ccnc(-c3ccn[nH]3)c2n1 (stereo unspecified) + CC[C@@]1(O)C(=O)OCc2c1cc1n(c2=O)Cc2cc3c(CN(C)C)c(O)ccc3nc2-1", "group": "True"}

---

- System: NCI-H841 complex tumor spheroid viability
- measurement-notes: Anticancer human tumor NCI-H841 cell line growth inhibition;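 also: spheroids exposed to compounds for 7 days before readout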;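 as to viability, T/C: 100% = DMSO vehicle control wells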
- measurement-conditions: second compound 0.03 µM; first compound 0.0316 µM; stronger effect = lower value
// viability, T/C lookup, one value per entry

{"compound": "COc1cc(C)[nH]c(=O)c1CN1CCc2c(Cl)cc(C(OC)C3COC3)c(Cl)c2C1=O (stereo not drawn) + CC[C@@]1(O)C(=O)OCc2c1cc1n(c2=O)Cc2cc3c(CN(C)C)c(O)ccc3nc2-1", "viability, T/C [%]": 3.53}
{"compound": "[2H]c1nc(C)nc([2H])c1-c1cc(NC[C@@H](C)c2cccc3c(C(=O)NC)ccnc23)ncn1 + CC[C@@]1(O)C(=O)OCc2c1cc1n(c2=O)Cc2cc3c(CN(C)C)c(O)ccc3nc2-1", "viability, T/C [%]": 2.66}
{"compound": "COc1ccc([C@@H](O)c2cc(-c3ncnc4cc(N5CCOCC5)ccc34)c(F)cc2Cl)nn1 + CC[C@@]1(O)C(=O)OCc2c1cc1n(c2=O)Cc2cc3c(CN(C)C)c(O)ccc3nc2-1", "viability, T/C [%]": 4.02}
